systemUnderTest: recombinant human ACC2 (Homo sapiens (Human), UniProt O00763)
Sequence (O00763 27-2458): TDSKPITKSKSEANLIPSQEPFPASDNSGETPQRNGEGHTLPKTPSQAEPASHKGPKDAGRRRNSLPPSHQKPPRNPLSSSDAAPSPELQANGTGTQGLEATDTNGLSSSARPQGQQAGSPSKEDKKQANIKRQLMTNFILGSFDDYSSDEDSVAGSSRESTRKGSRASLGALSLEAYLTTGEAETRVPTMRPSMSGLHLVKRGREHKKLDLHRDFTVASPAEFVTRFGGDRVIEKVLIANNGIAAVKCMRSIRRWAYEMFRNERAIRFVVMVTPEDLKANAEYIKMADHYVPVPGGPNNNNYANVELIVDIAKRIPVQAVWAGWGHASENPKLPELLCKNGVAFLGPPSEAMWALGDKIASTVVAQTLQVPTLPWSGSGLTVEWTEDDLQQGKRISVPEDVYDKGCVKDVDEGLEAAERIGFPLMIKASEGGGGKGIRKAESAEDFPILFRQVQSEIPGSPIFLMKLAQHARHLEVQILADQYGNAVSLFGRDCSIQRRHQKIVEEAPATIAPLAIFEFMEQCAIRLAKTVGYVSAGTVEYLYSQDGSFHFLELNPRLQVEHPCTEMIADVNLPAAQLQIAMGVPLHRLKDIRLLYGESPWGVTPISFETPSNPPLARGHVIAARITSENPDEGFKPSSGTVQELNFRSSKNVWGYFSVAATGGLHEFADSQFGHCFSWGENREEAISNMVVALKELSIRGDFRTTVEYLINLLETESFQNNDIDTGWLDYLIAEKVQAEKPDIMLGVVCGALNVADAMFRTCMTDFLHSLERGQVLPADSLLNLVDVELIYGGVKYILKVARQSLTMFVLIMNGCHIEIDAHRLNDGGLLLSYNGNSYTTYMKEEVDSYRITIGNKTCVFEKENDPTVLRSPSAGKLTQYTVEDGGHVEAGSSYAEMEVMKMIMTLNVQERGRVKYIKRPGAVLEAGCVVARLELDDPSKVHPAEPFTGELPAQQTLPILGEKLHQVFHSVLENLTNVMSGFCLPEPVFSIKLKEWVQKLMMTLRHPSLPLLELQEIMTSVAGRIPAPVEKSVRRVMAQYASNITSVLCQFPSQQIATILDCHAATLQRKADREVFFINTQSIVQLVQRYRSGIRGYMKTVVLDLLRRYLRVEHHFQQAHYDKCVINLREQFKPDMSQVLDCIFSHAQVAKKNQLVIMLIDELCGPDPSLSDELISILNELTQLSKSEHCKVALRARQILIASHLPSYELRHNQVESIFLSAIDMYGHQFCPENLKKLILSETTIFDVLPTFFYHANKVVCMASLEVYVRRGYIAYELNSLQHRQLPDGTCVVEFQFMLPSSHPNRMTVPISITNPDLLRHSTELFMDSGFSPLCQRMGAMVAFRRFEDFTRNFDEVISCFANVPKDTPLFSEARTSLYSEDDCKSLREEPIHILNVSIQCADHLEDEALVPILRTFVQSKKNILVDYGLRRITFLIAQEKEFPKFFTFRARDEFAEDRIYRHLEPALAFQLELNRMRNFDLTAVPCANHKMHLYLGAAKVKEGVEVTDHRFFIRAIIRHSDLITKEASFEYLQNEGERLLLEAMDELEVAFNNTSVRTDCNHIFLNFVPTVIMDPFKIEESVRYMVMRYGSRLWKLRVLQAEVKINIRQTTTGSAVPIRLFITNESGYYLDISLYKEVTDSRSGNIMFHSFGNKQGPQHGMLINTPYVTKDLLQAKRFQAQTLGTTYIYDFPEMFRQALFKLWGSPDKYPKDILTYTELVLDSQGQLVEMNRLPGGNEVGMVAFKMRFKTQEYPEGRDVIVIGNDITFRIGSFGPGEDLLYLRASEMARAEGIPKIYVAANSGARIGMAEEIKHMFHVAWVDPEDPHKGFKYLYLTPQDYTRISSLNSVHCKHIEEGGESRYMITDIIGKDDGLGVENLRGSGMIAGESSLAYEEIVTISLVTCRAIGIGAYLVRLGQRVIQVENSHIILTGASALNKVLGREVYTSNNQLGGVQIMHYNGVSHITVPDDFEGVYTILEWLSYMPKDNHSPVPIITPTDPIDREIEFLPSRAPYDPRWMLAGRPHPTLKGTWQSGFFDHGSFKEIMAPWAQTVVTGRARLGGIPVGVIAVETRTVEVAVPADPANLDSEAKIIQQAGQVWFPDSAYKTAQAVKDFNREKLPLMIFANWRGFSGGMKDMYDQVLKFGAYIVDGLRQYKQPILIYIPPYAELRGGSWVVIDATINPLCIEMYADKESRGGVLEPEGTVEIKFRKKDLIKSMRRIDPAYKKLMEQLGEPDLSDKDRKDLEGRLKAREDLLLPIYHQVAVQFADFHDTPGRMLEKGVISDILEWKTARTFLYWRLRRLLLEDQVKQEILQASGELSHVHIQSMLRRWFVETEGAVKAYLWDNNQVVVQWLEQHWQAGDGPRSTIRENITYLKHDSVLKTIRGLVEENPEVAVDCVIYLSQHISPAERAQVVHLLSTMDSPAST
runDescription: Measurement of inhibitory activity on human ACC2 (MALDI-TOF MS, conversion of acetyl CoA to malonyl CoA)
setupConditions: recombinant human ACC2, room temperature, 1 to 3 hours
measuredProperty: IC50 (nM)
Kindly answer with a numeric value in nM, unit omitted.

Would you please look over these solved cases?
CC(=O)N[C@@H](C)C(F)(F)C[C@H]1CC[C@H](Oc2nc3c(F)cc(OCC(F)F)c(F)c3n2C)CO1 [Example I-214]
12
CC(=O)N[C@@H](C)CO[C@H]1CC[C@H](Oc2nc3cc(Cl)c(F)cc3n2C)CC1 [Example I-211]
120
C[C@@H](CO[C@H]1CC[C@H](Oc2nc3ccc(OC4CC4)cc3n2C)CC1)NC(N)=O [Example I-197]
13

Shift focus to the following entry.
Report IC50 for CC(=O)N[C@@H](C)CO[C@H]1CC[C@@H](Cc2nc3c(F)cc(OCC(F)F)c(F)c3n2C)CC1 [Example I-251] please. 100
